- System: umbrella sedge
- assay_overview: Test C flooded paddy test
- Format: in vivo, Cyperus difformis
- condition_info: Flood, 62 g ai/ha; scale 0 to 100 (0 no effect, 100 complete control)
// Plant response rating, Sedge, Umbrella lookup, one value per entry
recorded_endpoint: Plant response rating, Sedge, Umbrella

| compound | recorded_endpoint | number |
| --- | --- | --- |
| CC(C)c1cc[n+]([O-])c([S+]([O-])Cc2c(C(F)(F)F)nn(C)c2OCC(F)(F)F)c1 (centres unmarked) | Plant response rating, Sedge, Umbrella | 0 |
| CCc1cc[n+]([O-])c(S(=O)(=O)Cc2c(C(F)(F)F)nn(C)c2OCC(F)(F)F)c1 | Plant response rating, Sedge, Umbrella | 0 |
| CCc1cc[n+]([O-])c([S+]([O-])Cc2c(C(F)(F)F)nn(C)c2OC(F)F)c1 (centres unmarked) | Plant response rating, Sedge, Umbrella | 0 |
| Cc1cc[n+]([O-])c([S+]([O-])Cc2c(C(F)(F)F)nn(C)c2OC(C)C(F)(F)F)c1 (centres unmarked) | Plant response rating, Sedge, Umbrella | 0 |
| Cn1nc(C(F)(F)F)c(CS(=O)(=O)c2ccc(Cl)c[n+]2[O-])c1OCC(F)F | Plant response rating, Sedge, Umbrella | 0 |
| CC(C)c1cc[n+]([O-])c(S(=O)(=O)Cc2c(C(F)(F)F)nn(C)c2OC(F)F)c1 | Plant response rating, Sedge, Umbrella | 0 |
| C#CCOc1c(CS(=O)(=O)c2cccc[n+]2[O-])c(C(F)(F)F)nn1C | Plant response rating, Sedge, Umbrella | 0 |
| Cn1nc(OC(F)F)c(CS(=O)(=O)c2cccc[n+]2[O-])c1C(F)(F)F | Plant response rating, Sedge, Umbrella | 0 |
| Cn1nc(C(F)(F)C(F)(F)F)c(CS(=O)(=O)c2ccc(Cl)c[n+]2[O-])c1OCC(F)(F)F | Plant response rating, Sedge, Umbrella | 0 |
| Cn1nc(C(F)(F)F)c(CS(=O)(=O)c2ccc(F)c[n+]2[O-])c1OCC(F)(F)F | Plant response rating, Sedge, Umbrella | 0 |
| Cn1nc(C(F)(F)F)c(CS(=O)(=O)c2cccc[n+]2[O-])c1OCC(F)F | Plant response rating, Sedge, Umbrella | 75 |
| Cn1nc(C(F)(F)C(F)(F)F)c(C[S+]([O-])c2ccc(Cl)c[n+]2[O-])c1OCC(F)(F)F (centres unmarked) | Plant response rating, Sedge, Umbrella | 20 |
| Cc1cc[n+]([O-])c([S+]([O-])Cc2c(C(F)(F)C(F)(F)F)nn(C)c2OCC(F)(F)F)c1 (centres unmarked) | Plant response rating, Sedge, Umbrella | 75 |
| Cn1nc(C(F)(F)F)c(C[S+]([O-])c2ccc(Cl)c[n+]2[O-])c1OCC(F)(F)C(F)(F)F (centres unmarked) | Plant response rating, Sedge, Umbrella | 0 |

* * *

// Plant response rating, Foxtail, Giant lookup, one value per entry
- Tested on: giant foxtail
- assay_overview: Test C pre-/postemergence test
- Assay type: in vivo, Setaria faberii
- condition_info: Preemergence, 31 g ai/ha; scale 0 to 100 (0 no effect, 100 complete control)

| molecule | Plant response rating, Foxtail, Giant |
| --- | --- |
| Cn1nc(C(F)(F)F)c(C(Cl)S(=O)(=O)c2cccc[n+]2[O-])c1OCC(F)(F)F (racemic) | 30 |
| CCn1nc(C(F)(F)F)c(CS(=O)(=O)c2cccc[n+]2[O-])c1OCC(F)(F)F | 100 |
| CC(c1c(C(F)(F)F)nn(CC(F)(F)F)c1Cl)[S+]([O-])c1cccc[n+]1[O-] (stereo not shown) | 85 |
| Cc1cc[n+]([O-])c(S(=O)(=O)C(Cl)c2c(C(F)(F)F)nn(C)c2Cl)c1 (racemic) | 80 |
| C#CCOc1c(C[S+]([O-])c2cccc[n+]2[O-])c(C(F)(F)F)nn1C (stereo not shown) | 75 |
| CCc1cc[n+]([O-])c(S(=O)(=O)Cc2c(C(F)(F)F)nn(C)c2OC(F)F)c1 | 60 |
| Cc1cc[n+]([O-])c(S(=O)(=O)Cc2c(C(F)(F)F)nn(C)c2OCC(F)(F)F)c1 | 100 |
| CCn1nc(C(F)(F)F)c(CS(=O)(=O)c2cc(C)cc[n+]2[O-])c1OCC(F)(F)F | 85 |
| Cn1nc(C(F)(F)F)c(C[S+]([O-])c2cc(C(C)(C)C)cc[n+]2[O-])c1OC(F)F (racemic) | 70 |
| Cn1nc(C(F)(F)C(F)(F)F)c(C[S+]([O-])c2cccc[n+]2[O-])c1OCC(F)(F)F (stereo not shown) | 70 |
| Cn1nc(C(F)(F)F)c(C[S+]([O-])c2ccc(Cl)c[n+]2[O-])c1Cl (racemic) | 95 |
| CCc1cc[n+]([O-])c([S+]([O-])Cc2c(C(F)(F)F)nn(C)c2OCC(F)(F)F)c1 (stereo not shown) | 35 |
| Cn1nc(C(F)(F)F)c(C[S+]([O-])c2cc(C(F)(F)F)cc[n+]2[O-])c1Cl (racemic) | 20 |

Cited source for all entries: patent US20100298141A1
